// values below are reported self-cleavage kobs at 2500 uM GlcN6P
B1: glmS ribozyme (parent)
chain: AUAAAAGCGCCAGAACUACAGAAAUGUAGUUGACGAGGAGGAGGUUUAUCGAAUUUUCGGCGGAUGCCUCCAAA

- Variants of: B1
- assaySummary: self-cleavage kobs at 2500 uM GlcN6P; higher = faster cleavage; RNA array
- conditionInfo: with glucosamine-6-phosphate
This sample holds only a part of the variants without activity.

Field: example entries. Status: answers known.
| residueChange | self-cleavage kobs at 2500 uM GlcN6P |
| --- | --- |
| G7U U45A C58A | < 1e-05 s⁻¹ |
| A14G G40C | 0.00549 s⁻¹ |
| G32C C34U | < 1e-05 s⁻¹ |
| A39G A64C | 0.000202 s⁻¹ |
| G37A U45G | 0.000738 s⁻¹ |

// below: self-cleavage kobs at 2500 uM GlcN6P requested for another variant
**Q:** What value of measured self-cleavage kobs at 2500 uM GlcN6P is listed for G29C U30G A33U C58U ?
**A:** < 1e-05 s⁻¹

The measurements presented in this section are drawn from the supplement of paper PMC7125110.
